Value source: paper PMC5735336

# Lookup of reported Hb keyed by entry
tested on: EAC cells; assay: In vivo antitumor screening against EAC cells in mice; conditions: blood profile of mice inoculated with EAC cells, 0.5 mg/mouse

- molecule: "O=c1oc2ccccc2cc1-c1csc(NN=Cc2cc([N+](=O)[O-])ccc2Cl)n1"
  Hb / g/dL: 11.97
- molecule: "O=c1oc2ccccc2cc1-c1csc(NN=Cc2c(Cl)cccc2Cl)n1"
  Hb / g/dL: 12.92
- molecule: "O=c1[nH]cc(F)c(=O)[nH]1 [5-Fluorouracil, 5-fluorouracil, reference compound]"
  Hb / g/dL: 12.96
- molecule: "O=c1oc2ccccc2cc1-c1csc(NN=Cc2ccc[nH]2)n1"
  Hb / g/dL: 11.43
- molecule: "O=c1oc2ccccc2cc1-c1csc(NN=Cc2c3ccccc3c(Cl)c3ccccc23)n1"
  Hb / g/dL: 13.10

----------
tested on: EAC cells; assay: In vivo antitumor screening against EAC cells in mice; conditions: blood profile of mice inoculated with EAC cells, 0.5 mg/mouse
Entries and their WBCs Count

- compound: "O=c1oc2ccccc2cc1-c1csc(NN=Cc2cc([N+](=O)[O-])ccc2Cl)n1"
  assayed_system: "EAC cells"
  WBCs Count: "9.25 10^3/mm^3"
- compound: "O=c1oc2ccccc2cc1-c1csc(NN=Cc2c(Cl)cccc2Cl)n1"
  assayed_system: "EAC cells"
  WBCs Count: "8.41 10^3/mm^3"
- compound: "O=c1[nH]cc(F)c(=O)[nH]1 [5-Fluorouracil, 5-fluorouracil, reference compound]"
  assayed_system: "EAC cells"
  WBCs Count: "8.86 10^3/mm^3"
- compound: "O=c1oc2ccccc2cc1-c1csc(NN=Cc2c3ccccc3c(Cl)c3ccccc23)n1"
  assayed_system: "EAC cells"
  WBCs Count: "7.45 10^3/mm^3"
- compound: "O=c1oc2ccccc2cc1-c1csc(NN=Cc2ccc[nH]2)n1"
  assayed_system: "EAC cells"
  WBCs Count: "9.61 10^3/mm^3"

----------
test: In vitro cytotoxicity testing, MTT assay, W138 normal cells; assay type: cell-based; conditions: W138 normal lung fibroblast cells, human normal lung fibroblast W138, read-out: IC50 W138 normal cell line
measure_name: IC50 at 48 h (µM)

- molecule: "O=c1oc2ccccc2cc1-c1csc(NN=Cc2ccc[nH]2)n1"
  measured_number: 29.5
- molecule: "O=c1oc2ccccc2cc1-c1csc(NN=Cc2c(Cl)cccc2Cl)n1"
  measured_number: 36.2
- molecule: "O=c1oc2ccccc2cc1-c1csc(NN=Cc2cc([N+](=O)[O-])ccc2Cl)n1"
  measured_number: 19.8
- molecule: "O=c1[nH]cc(F)c(=O)[nH]1 [5-Fluorouracil, 5-fluorouracil, reference compound]"
  measured_number: 5.73
- molecule: "O=c1oc2ccccc2cc1-c1csc(NN=Cc2c3ccccc3c(Cl)c3ccccc23)n1"
  measured_number: 24.3

----------
measure_name: melting point

- compound: "Cc1ccc(O)c(C=NNc2nc(-c3cc4ccccc4oc3=O)cs2)c1 [5j]"
  measure_name: "melting point"
  result: "206 to 207 °C"
- compound: "Cc1cc(C=NNc2nc(-c3cc4ccccc4oc3=O)cs2)ccc1O [5k]"
  measure_name: "melting point"
  result: "193 to 194 °C"
- compound: "N#Cc1cccc(C=NNc2nc(-c3cc4ccccc4oc3=O)cs2)c1 [5c]"
  measure_name: "melting point"
  result: "224 to 225 °C"
- compound: "O=c1oc2ccccc2cc1-c1csc(NN=Cc2ccc3ccccc3c2)n1 [5o]"
  measure_name: "melting point"
  result: "225 to 227 °C"
- compound: "O=c1oc2ccccc2cc1-c1csc(NN=Cc2c(F)cccc2Cl)n1 [5g]"
  measure_name: "melting point"
  result: "195 to 196 °C"
- compound: "O=c1oc2ccccc2cc1-c1csc(NN=Cc2ccc(C(F)(F)F)cc2)n1 [5d]"
  measure_name: "melting point"
  result: "189 to 190 °C"
- compound: "N#Cc1ccccc1C=NNc1nc(-c2cc3ccccc3oc2=O)cs1 [5b]"
  measure_name: "melting point"
  result: "219 to 220 °C"
- compound: "O=c1ccc2cc(C=NNc3nc(-c4cc5ccccc5oc4=O)cs3)ccc2o1 [5q]"
  measure_name: "melting point"
  result: "181 to 183 °C"
- compound: "Cc1cccc(C=NNc2nc(-c3cc4ccccc4oc3=O)cs2)c1 [5e]"
  measure_name: "melting point"
  result: "190 to 191 °C"
- compound: "O=c1oc2ccccc2cc1-c1csc(NN=Cc2cc3ccc4cccc5ccc(c2)c3c45)n1 [5t]"
  measure_name: "melting point"
  result: "237 to 239 °C"
- compound: "O=c1oc2ccccc2cc1-c1csc(NN=Cc2ccc3ccccc3c2[N+](=O)[O-])n1 [5p]"
  measure_name: "melting point"
  result: "211 to 213 °C"
